Tested on: MCF-7, SF-268, NCI-H460
METHOD DESCRIPTION: Human cell growth inhibition, three cell lines together
Assay type: cell-based
EXPERIMENTAL CONTEXT: read-out: IC50 averaged over the three cell lines investigated
RECORDED METRIC: IC50

[
  {
    "COMPOUND": "O=P(O)(O)C(Nc1cccc(-c2ccccc2)c1)P(=O)(O)O",
    "TARGET OR SYSTEM": "MCF-7, SF-268, NCI-H460",
    "ENDPOINT RESULT": "~229 µM"
  },
  {
    "COMPOUND": "O=P(O)(O)C(O)(Cc1cnc2ccccn12)P(=O)(O)O [Compound 44, minodronate]",
    "TARGET OR SYSTEM": "MCF-7, SF-268, NCI-H460",
    "ENDPOINT RESULT": "~5 µM"
  },
  {
    "COMPOUND": "O=P(O)(O)C(O)(Cn1ccnc1)P(=O)(O)O [Compound 36, zoledronate]",
    "TARGET OR SYSTEM": "MCF-7, SF-268, NCI-H460",
    "ENDPOINT RESULT": "~15 µM"
  }
]
